Recorded cytotoxicity at 70.5 h values for a group of compounds are listed next.
# ASSAY_TEXT: Human HepG2 cell viability assay in 384 well format
# Assay type: toxicity, cell-based
# Design: dose 125 nL, time 70.5 hour; concentration not given beside the values
# REPORTED_CONDITIONS: HepG2 cells, read-out: Inhibition
TEST_READOUT: cytotoxicity at 70.5 h (%)

- CC(=O)c1ccc(S(=O)(=O)N2CCOC(Cn3ccnc3)C2)cc1 (stereo not drawn): -7.46
- Cc1nc(C)n(CC2CCCN2Cc2cn3ccccc3c2C#N)n1 (stereo not drawn): -6.14
- O=C(NCC(CO)Cc1ccc(Cl)cc1)c1ccncc1F (stereo not drawn): -1.03
- CCN(CC)C(=O)CN1CCCC1c1nc(C)c2c(n1)N(C)C(=O)CC2 (stereo not drawn): -7.02
- CCn1nc(C)c(CN(CCOC)C(=O)c2ccccc2N(C)C)c1C: -2.9
- CC(C)c1nnc2n1CCN(C(=O)c1ccc(OCC(N)=O)cc1)C2: -4.33
- O=C(O)c1cnc(N2CC[C@H](N3CCOCC3)[C@H](CCCO)C2)c(Cl)c1: -7.02
- CCn1c(SCC(N)=O)nnc1-c1csc2c1CCCC2: 2.39
- O=C(CCc1ccccc1F)NC1CCCN(c2ccccn2)C1 (stereo not drawn): -5.74
- O=C(Nc1ccc(-c2ccco2)cc1)C1CCCN(Cc2ccon2)C1 (stereo not drawn): 1.57
- Cc1cc(NCc2csc(C)n2)no1: -4.29
- CCn1ccnc1CN1C[C@@H](NC(=O)C2CC2)[C@H](c2ccc(C)cc2)C1: 23.8
- CCC(=O)N1CCCCC1c1nc(O)c2c(n1)CN(S(C)(=O)=O)CC2 (stereo not drawn): 12.1
- COCC(=O)N[C@H](C)c1onc(-c2ccc(OC)cc2)c1C(=O)O: 10.8
- COCCN1CCC2(CCN(Cc3ccc(OC)cc3)CC2)C1=O: -11.1
- O=S(=O)(c1ccccc1)N1CCC[C@]2(C[C@@H](OCC3CC3)CO2)C1: 9.43
- CS(=O)(=O)NCC1CCCCN1C(=O)c1csc(-c2ccsc2)n1 (stereo not drawn): 0.102
- Cc1nc(C2(O)CCCNCC2)sc1CCOc1ccccc1 (stereo not drawn): -9.24
- O=C(c1cc[nH]c(=O)c1)N1CCn2c(nnc2-c2ccccc2)C1: -4.86
- Cc1c(CN2CCCC(n3c(=O)oc4ccccc43)C2)cnn1C (stereo not drawn): 17.2
- Cc1cc(C(=O)N2CCN(c3ccncc3Cl)CC2)n(C)n1: -1.44
- CCOc1nnc(CN2CCOC(CNc3cccnn3)C2)s1 (stereo not drawn): 15
- COc1ccc(F)c(CN2CCCC(O)(CNCc3ncc[nH]3)C2=O)c1 (stereo not drawn): -5.99
